B1: TPR 5TU (parent)
chain: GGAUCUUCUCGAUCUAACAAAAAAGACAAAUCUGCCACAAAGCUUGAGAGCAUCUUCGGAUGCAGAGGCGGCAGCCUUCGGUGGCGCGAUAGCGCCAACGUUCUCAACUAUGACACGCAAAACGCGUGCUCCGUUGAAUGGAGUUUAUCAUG

variants of: B1; experiment: polymerase ribozyme fitness, log enrichment relative to wild type (log ratio); higher = more active; in vitro selection for triplet polymerase activity
Variants at the floor of the assay were thinned out.
Kindly state polymerase ribozyme fitness (log ratio) for each of the entries shown.
Give bare numbers.

// known answers, use as guide
SEQUENCE VARIANT	OBSERVATION TYPE	VAL
C85A A119U A122U G141A	polymerase ribozyme fitness (log ratio)	0.358
A26C C105U	polymerase ribozyme fitness (log ratio)	-2.13
G50A G94U	polymerase ribozyme fitness (log ratio)	-3.07
U55C C85A A91C G126A	polymerase ribozyme fitness (log ratio)	-4.06
A41C A47G	polymerase ribozyme fitness (log ratio)	-0.27

I'm hoping you can list polymerase ribozyme fitness (log ratio) for every variant here, please.
1. C38U C95A C103U G143A
2. U4C A24U G81A C85U A89C
3. G128A
4. G83A U135C
5. A47U U56A A122G U127C
6. U56A C118G A150G
7. U4G U7C A16G C96G

1: -3.18; 2: -0.962; 3: -2.74; 4: -2.09; 5: -2.55; 6: -2.41; 7: -2.73

Report polymerase ribozyme fitness (log ratio) for every entry below.
1. A39U U53A G86U
2. U9A A21U

1. -3.7
2. -3.81

Working through the 4 variants below one at a time, give polymerase ribozyme fitness (log ratio) for each.
1. C54G C95G
2. G86A U139G
3. A20U A41U C63A A106G U145A
4. C93G C125G A150U

[-2.56, -1.36, -2.83, -4.06]

# per-item lookup of polymerase ribozyme fitness (log ratio); items listed below
1. C14G C38U C95G A106C
2. C18G G50A C76U A115G A119G
3. C54G A60G C95G

1: -4.14; 2: -3.18; 3: -2.44
